Target: T1, canine IL-31 protein (Canine_IL31)
T1 chain: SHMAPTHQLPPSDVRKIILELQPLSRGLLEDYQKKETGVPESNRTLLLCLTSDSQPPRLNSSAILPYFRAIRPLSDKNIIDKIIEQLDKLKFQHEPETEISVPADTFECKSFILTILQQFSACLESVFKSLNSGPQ
Assay: Biacore
Known Kd of a selection of binders
readout_label: Kd

{"columns": ["binder", "experimental_value"],
 "data": [
  ["Feline 15H05 VH3 mouse VL (antibody, V domains shown) VH: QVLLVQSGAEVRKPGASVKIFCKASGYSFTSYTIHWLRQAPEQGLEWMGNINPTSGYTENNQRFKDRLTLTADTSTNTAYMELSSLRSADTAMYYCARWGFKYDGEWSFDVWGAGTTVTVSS VL: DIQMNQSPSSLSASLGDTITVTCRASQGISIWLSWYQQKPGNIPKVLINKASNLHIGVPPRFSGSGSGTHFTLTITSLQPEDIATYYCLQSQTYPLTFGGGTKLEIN", "0.00264 nM"],
  ["Feline 15H05 1.1 FW2_3 (antibody, V domains shown) VH: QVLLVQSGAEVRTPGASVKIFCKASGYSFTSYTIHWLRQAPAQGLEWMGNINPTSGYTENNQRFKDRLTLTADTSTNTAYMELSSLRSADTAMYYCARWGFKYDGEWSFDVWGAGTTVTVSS VL: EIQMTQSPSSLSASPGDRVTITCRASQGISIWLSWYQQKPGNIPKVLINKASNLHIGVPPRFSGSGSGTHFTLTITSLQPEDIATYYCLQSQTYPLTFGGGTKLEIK", "214 nM"],
  ["Feline 15H05 1.1 FW1_2 (antibody, V domains shown) VH: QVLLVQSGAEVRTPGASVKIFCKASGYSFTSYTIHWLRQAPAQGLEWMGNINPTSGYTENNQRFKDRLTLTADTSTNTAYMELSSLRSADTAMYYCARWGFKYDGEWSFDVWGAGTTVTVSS VL: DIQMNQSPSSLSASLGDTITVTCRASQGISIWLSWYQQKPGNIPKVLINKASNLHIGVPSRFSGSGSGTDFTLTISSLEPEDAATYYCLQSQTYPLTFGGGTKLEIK", "0.263 nM"]
]}
